- System: COLO 205 colon
- ASSAY: NCI tumour cell line growth inhibition, 48 h
We use 30 µM as the dividing line for TGI: on or above the line is y, below is n.

Would you please look over these solved cases?
{"COMPOUND": "COc1ccc(CC2Cc3ccccc3CC(=O)N2)cc1OC (configuration not stated)", "LABEL_CLASS": "y"}
{"COMPOUND": "NC(CCl)=NCC12CC3CC(CC(C3)C1)C2", "LABEL_CLASS": "n"}
{"COMPOUND": "OCC1CC2C=CCC(C2)C1 (configuration not stated)", "LABEL_CLASS": "y"}

Qu. Test whether the compound COC(=O)CC(C(C(=O)OCc1ccccc1)C(C)O)N1C(=O)OCC1c1ccccc1 (configuration not stated) records TGI of 30 µM or higher.
Ans. y

Qu. Test whether the compound C[C@@H](c1ccccc1)N1C[C@@H](c2ccc3c(c2)OCO3)[C@@H]2C(=O)CCC[C@@H]21 records TGI of 30 µM or higher.
Ans. y

Qu. Test whether the compound COC(=O)[C@@H](C)C[C@H](Cc1ccc(F)cc1)NC(=O)c1csc([C@@H](C[C@H](C(C)C)N(C)C(=O)[C@@H](NC(=O)[C@H]2CCCCN2C)C2CC2)OC(C)=O)n1 records TGI of 30 µM or higher.
Ans. n

Qu. Test whether the compound O=C(O)C(Cc1ccccc1)N=Cc1nc(-c2ccccc2)oc1O (configuration not stated) records TGI of 30 µM or higher.
Ans. y

Qu. Test whether the compound OC(c1cc2ccccc2[nH]1)C(O)(c1cc2ccccc2[nH]1)c1cc2ccccc2[nH]1 (configuration not stated) records TGI of 30 µM or higher.
Ans. n

Qu. Test whether the compound C/C1=C\[C@@H](C)C[C@@H](C)OC(=O)[C@@H](C)NC(=O)[C@H](Cc2ccc(O)c(Br)c2)N(C)C(=O)CNC(=O)[C@H](C)C1 records TGI of 30 µM or higher.
Ans. y

Qu. Test whether the compound O=C(/C=C/c1ccc(-c2ccccc2)cc1)c1ccccc1 records TGI of 30 µM or higher.
Ans. y

Qu. Test whether the compound COC(=O)c1ccc(NCC2=CC(=O)C=CC2=O)cc1O records TGI of 30 µM or higher.
Ans. y

Qu. Test whether the compound Nc1nncc2n[nH]nc12 records TGI of 30 µM or higher.
Ans. y

Qu. Test whether the compound C1=C2C3=[N+](CCCC3)CC2Cc2sccc21 (configuration not stated) records TGI of 30 µM or higher.
Ans. y

Qu. Test whether the compound COc1ccc(-c2c(NC(=O)Nc3ccc(Cl)c(C(F)(F)F)c3)cnn2-c2ccc(S(N)(=O)=O)cc2)cc1 records TGI of 30 µM or higher.
Ans. n

Qu. Test whether the compound CC1CN=C(N(C(=O)Nc2ccc(Cl)cc2)c2cccc(Cl)c2)S1 (configuration not stated) records TGI of 30 µM or higher.
Ans. y

Qu. Test whether the compound Cc1ccc(S(=O)(=O)NC(Cc2ccccc2)C(=O)CCl)cc1 (configuration not stated) records TGI of 30 µM or higher.
Ans. y

Qu. Test whether the compound O=c1cccccc1O records TGI of 30 µM or higher.
Ans. y

Qu. Test whether the compound CCCCN(C)CC(C(C)=O)C(c1ccccc1)c1c(O)c2ccccc2oc1=O (configuration not stated) records TGI of 30 µM or higher.
Ans. y

Qu. Test whether the compound C=CCC1(CN(C)C)CC/C(=C\c2cc(OC)c(OC)c(OC)c2)C1=O (configuration not stated) records TGI of 30 µM or higher.
Ans. y

Qu. Test whether the compound O=C(O)CN1CCN2CCCCCCCCN(CC1)CCN(CC(=O)O)CC2 records TGI of 30 µM or higher.
Ans. y

Qu. Test whether the compound Cc1ccc(C(=O)C2C=C(c3ccc(C)cc3)SC3C=CCC32)cc1 (configuration not stated) records TGI of 30 µM or higher.
Ans. y
